biological target: RanGTP-importin-beta complex (human Ran / KPNB1); assay: disruptors of RanGTP/KPNB1 binding – biochemical, FRET, CFP/YFP, cell-free homogeneous, confirmation (AID 2823); conditions: CFP-Ran/YFP-importin-beta FRET ratio
Active and inactive are the calls of the source. How the calls were made is not given here.
Outcomes: 1.0 for active, 0.0 for inactive

molecule=CCN(CC)S(=O)(=O)c1cc(C(=O)Nc2ccccc2[N+](=O)[O-])ccc1Cl label_class=0.0
molecule=O=C(c1cc2ccccc2oc1=O)N1CCN(CCc2ccccc2)CC1 label_class=1.0
molecule=c1cncc(Nc2c3ccccc3nc3ccccc23)c1 label_class=0.0
molecule=CCCOc1ccc(C2C(C(=O)OC)=CN(CCOC)C=C2C(=O)OC)cc1 label_class=1.0
molecule="CC1=C(C(=O)OCC2CCCO2)C(c2ccccc2OC(C)C)C2=C(CC(c3ccco3)CC2=O)N1 (stereo unspecified)" label_class=1.0
molecule=Cc1cc(NCCN(C)C)n2nc(-c3cccs3)cc2n1 label_class=1.0
molecule=CSc1nc(-c2ccc(N(C)C)cc2)c(C#N)c(=O)n1C label_class=0.0
molecule="Cc1c(/C=N\\NC(=O)C2COc3ccccc3O2)c2ccccc2n1C (stereo unspecified)" label_class=0.0
molecule=O=c1[nH]c2cc(Br)cnc2nc1/C=C(\O)c1ccc(F)cc1 label_class=0.0
molecule=COC(=O)Cn1c(=O)c2c(nc3n2CCCN3CCc2ccccc2)n(C)c1=O label_class=0.0
molecule=Nc1c(C(=O)NCc2ccccc2)c2nc3ccccc3nc2n1-c1ccc2c(c1)OCO2 label_class=1.0

----------
Attribute: IC50
target: RanGTP-importin-beta complex (human Ran / KPNB1); assay: disruptors of RanGTP/KPNB1 binding – biochemical, FRET, CFP/YFP, cell-free homogeneous, confirmation (AID 2823); conditions: CFP-Ran/YFP-importin-beta FRET ratio
Active and inactive are the calls of the source. The rule behind the calls is not given here.
MEASURED QUANTITY: IC50

compound=COc1ccc(OCC(=O)NNc2c3ccccc3nc3ccccc23)cc1 measured_quantity=IC50 result="> 50 µM (inactive)"
compound=COc1cccc(NC(=O)Nc2ccc3c(c2)N(C)C(=O)CS3)c1 measured_quantity=IC50 result="> 50 µM (inactive)"
compound=O=C(Cn1c2ccccc2c(=O)c2ccccc21)N/N=C/c1ccc(N2CCCC2)c([N+](=O)[O-])c1 measured_quantity=IC50 result="> 50 µM (inactive)"
compound=O=c1c2cc(NC(=S)N3CCC(N4CCCCC4)CC3)ccc2nc2n1CCCCC2 measured_quantity=IC50 result="> 50 µM (inactive)"
compound=CCOC(=O)CSc1nnc(CSc2nc3sc4c(c3c(=O)[nH]2)CCCC4)n1-c1ccccc1 measured_quantity=IC50 result="> 50 µM (inactive)"
compound=Cc1csc2ncnc(NC3CCN(Cc4ccccc4)CC3)c12 measured_quantity=IC50 result="> 50 µM (inactive)"
compound="CC1CC(=O)N(CC(=O)Nc2cccc(Cl)c2)c2ccccc2S1(=O)=O (stereo not given)" measured_quantity=IC50 result="> 50 µM (inactive)"
compound="CCOC(=O)C1=C(C)NC2=C(C(=O)C(C(=O)OCC)C(c3ccccc3OC)C2)C1c1ccccn1 (stereo not given)" measured_quantity=IC50 result="26.2 µM"
compound="CCC(CC)COC(=O)C1=C(C)NC(=O)NC1c1ccc(N(C)C)cc1 (stereo not given)" measured_quantity=IC50 result="> 50 µM (inactive)"
compound=O=C1CC(/C=C/c2ccco2)=Nc2ccccc2N1 measured_quantity=IC50 result="> 50 µM (inactive)"
compound=CCCCNC(=O)c1c(N)n(Cc2ccc3c(c2)OCO3)c2nc3ccccc3nc12 measured_quantity=IC50 result="4.95 µM"
compound=CCC(=O)N(C)/C=C1\Sc2ccccc2C1=O measured_quantity=IC50 result="> 50 µM (inactive)"
compound="CC1CCCCN1Cc1c(O)ccc2c(=O)c(-c3nc4ccccc4s3)coc12 (stereo not given)" measured_quantity=IC50 result="< 0.38 µM"
compound=CCNc1nnc(CSc2nc3ccccc3s2)s1 measured_quantity=IC50 result="> 50 µM (inactive)"
compound=COc1ccc(N2C(=O)CC(C#N)=C2N)cc1 measured_quantity=IC50 result="> 50 µM (inactive)"
compound=c1ccc(-n2nnnc2-c2cnc(-c3cccnc3)nc2-c2cccs2)cc1 measured_quantity=IC50 result="> 50 µM (inactive)"
compound=Cc1c(CCC(=O)NCCCN2CCCC2=O)c(=O)oc2c(C)c(O)ccc12 measured_quantity=IC50 result="15.6 µM"
compound=COc1ccc(C(=O)O)cc1S(=O)(=O)N(C)C measured_quantity=IC50 result="> 50 µM (inactive)"
compound=CC(C)OCCCNC(=O)CCSc1ccc(Cl)cc1 measured_quantity=IC50 result="> 50 µM (inactive)"
compound=CC(C)Sc1nnc(CNC(=O)C23CC4CC(CC(C4)C2)C3)n1C1CCCCC1 measured_quantity=IC50 result="> 50 µM (inactive)"
compound=CSc1nsc2nc(=O)c(/C=C3\C=Nc4ccccc43)c(N)n12 measured_quantity=IC50 result="22.6 µM"
compound=COc1ccc(CCNc2c3ccccc3nc3ccccc23)cc1OC measured_quantity=IC50 result="12.5 µM"
compound=O=C(c1ccccc1)c1cc2ccc(O)cc2oc1=O measured_quantity=IC50 result="13 µM"
compound="N#CC1=C(N)Oc2cc3c(cc2C1c1ccc(Cl)cc1)OCO3 (stereo not given)" measured_quantity=IC50 result="> 50 µM (inactive)"
compound=CCn1nc(NC(=O)c2ccccn2)c2cc3cccc(C)c3nc21 measured_quantity=IC50 result="2.68 µM"
compound=Cc1onc(-c2ccccc2)c1C(=O)Nc1cccc2nsnc12 measured_quantity=IC50 result="33.3 µM"
compound=COCCCn1c(N)c(C(=O)Nc2ccccc2)c2nc3ccccc3nc21 measured_quantity=IC50 result="40.8 µM"
compound=CCCOC(=S)NC(=O)c1sc2ccccc2c1Cl measured_quantity=IC50 result="> 50 µM (inactive)"
compound=Cc1ccc(-n2c(O)c(/C=N/N3CCCCCC3)c(=O)[nH]c2=O)cc1C measured_quantity=IC50 result="> 50 µM (inactive)"
compound="N#Cc1cc(NCC2CCCO2)c([N+](=O)[O-])cc1C#N (stereo not given)" measured_quantity=IC50 result="> 50 µM (inactive)"
compound=CC(=O)N1CCc2c(sc(NC(=O)CCS(=O)(=O)c3ccc(C)cc3)c2C(N)=O)C1 measured_quantity=IC50 result="30.7 µM"
compound=CC(C)(C)c1ccc(S(=O)(=O)NCC(=O)N2CCN(C(=O)c3ccco3)CC2)cc1 measured_quantity=IC50 result="> 50 µM (inactive)"
compound=COC(=O)c1cc(=O)n2c(sc3ccccc32)c1C#N measured_quantity=IC50 result="1.32 µM"
compound=CC(C)SCC(=O)Nc1ncc2c(n1)-c1ccccc1CC2 measured_quantity=IC50 result="10.1 µM"
compound=CC(=O)Cc1nsc(NC(=O)c2ccc(-c3cccc(C(F)(F)F)c3)o2)n1 measured_quantity=IC50 result="> 50 µM (inactive)"
compound=O=C(CN1C(=O)NC2(CCCC2)C1=O)Nc1nc2c(F)cc(F)cc2s1 measured_quantity=IC50 result="> 50 µM (inactive)"
compound="Cc1ccc2[nH]c(=O)c(C(c3nnnn3Cc3ccccc3)N3CCc4ccccc43)cc2c1 (stereo not given)" measured_quantity=IC50 result="> 50 µM (inactive)"
compound=CN(C)CCCn1c(N)c(C#N)c2nc(C#N)c(C#N)nc21 measured_quantity=IC50 result="21.9 µM"
compound=CCOC(=O)c1[nH]c(C)c(C(=O)N(C)Cc2ccccc2)c1C measured_quantity=IC50 result="> 50 µM (inactive)"
compound="C=CCn1c(SCCOc2ccc(OC)cc2)nnc1C(CO)NC(=O)c1ccc(OC)cc1 (stereo not given)" measured_quantity=IC50 result="> 50 µM (inactive)"
compound=CCc1ccc(CNc2ccc3c(c2)ncn3CC)cc1 measured_quantity=IC50 result="> 50 µM (inactive)"
compound="CCCC(C)c1nnc(NC(=O)C2CC(=O)N(c3ccc(OCC)cc3)C2)s1 (stereo not given)" measured_quantity=IC50 result="> 50 µM (inactive)"
compound=CCOc1ccc(C(=O)c2cc3ccc(O)cc3oc2=O)cc1 measured_quantity=IC50 result="9.4 µM"
compound=O=C(c1ccc(F)cc1)c1cc2ccc(O)cc2oc1=O measured_quantity=IC50 result="11.4 µM"
compound=N#C/C(=C(/O)CSc1ccccn1)c1nc2ccccc2s1 measured_quantity=IC50 result="> 50 µM (inactive)"

----------
Attribute: IC50
target: RanGTP-importin-beta complex (human Ran / KPNB1); assay: disruptors of RanGTP/KPNB1 binding – biochemical, FRET, CFP/YFP, cell-free homogeneous, confirmation (AID 2823); settings: CFP-Ran/YFP-importin-beta FRET ratio
Calls of active or inactive are those of the source. The rule behind the calls is not given here.
MEASURED QUANTITY: IC50

compound=CCN1CCN(Cc2ccc(NC(=O)c3ccc(C)c(/C=C/c4cnc(Nc5cc(N6CCNCC6)nc(C)n5)cn4)c3)cc2C(F)(F)F)CC1 test_target="RanGTP-importin-beta complex (human Ran / KPNB1)" result="19.5 µM"
compound=Cc1nn(-c2ccccc2)c2sc(C(=O)NC3CCCCC3)cc12 test_target="RanGTP-importin-beta complex (human Ran / KPNB1)" result="> 50 µM (inactive)"
compound="COc1ccc(CNC(=O)C2CC(=O)N(C3CCCCC3)C2)cc1 (configuration not stated)" test_target="RanGTP-importin-beta complex (human Ran / KPNB1)" result="> 50 µM (inactive)"
compound=Cc1cc(CNC(=O)COc2ccc(F)cc2)c2ccccc2n1 test_target="RanGTP-importin-beta complex (human Ran / KPNB1)" result="> 50 µM (inactive)"
compound=OCCNCc1cccc(OCc2ccccc2Cl)c1 test_target="RanGTP-importin-beta complex (human Ran / KPNB1)" result="> 50 µM (inactive)"
compound=C=CCn1c(N)c(C(=O)OCCC)c2nc3ccccc3nc21 test_target="RanGTP-importin-beta complex (human Ran / KPNB1)" result="26 µM"
compound=Cc1ccc(N2CCN(c3ccc(C)cc3)C2c2ccccn2)cc1 test_target="RanGTP-importin-beta complex (human Ran / KPNB1)" result="> 50 µM (inactive)"
compound=Cc1ccc(S(=O)(=O)Nc2nc3ccccc3nc2NCc2ccco2)cc1 test_target="RanGTP-importin-beta complex (human Ran / KPNB1)" result="18.2 µM"
compound=COc1cc(C(=O)Oc2c(CN3CCOCC3)cc(Cl)c3cccnc23)cc(OC)c1OC test_target="RanGTP-importin-beta complex (human Ran / KPNB1)" result="> 50 µM (inactive)"
compound=COC(=O)Cc1c(C)c2ccc(O)c(CNCc3ccc(OC)c(OC)c3)c2oc1=O test_target="RanGTP-importin-beta complex (human Ran / KPNB1)" result="6.13 µM"
compound="Cc1ccc2cc(C#N)c(N3CCCN(C(=O)C4CCCO4)CC3)nc2c1 (configuration not stated)" test_target="RanGTP-importin-beta complex (human Ran / KPNB1)" result="20.5 µM"
compound=Cc1cccc(C2=NN(c3ccc(Br)cc3)[C@@H](C(=O)N3CCOC3=O)[C@@H]2c2ccc(F)cc2)c1 test_target="RanGTP-importin-beta complex (human Ran / KPNB1)" result="33.6 µM"
compound=CCOc1ccc(-n2c(N)c(C(=O)NCc3ccco3)c3nc4ccccc4nc32)cc1 test_target="RanGTP-importin-beta complex (human Ran / KPNB1)" result="25 µM"
compound=NC(N)=N/N=C/c1ccc(N(c2ccccc2)c2ccccc2)cc1 test_target="RanGTP-importin-beta complex (human Ran / KPNB1)" result="16.8 µM"
compound=CCS(=O)(=O)c1ccc(S(=O)(=O)CC)s1 test_target="RanGTP-importin-beta complex (human Ran / KPNB1)" result="> 50 µM (inactive)"
compound=COc1cccc(-c2cc(C(=O)NC3CC3)c3ccccc3n2)c1 test_target="RanGTP-importin-beta complex (human Ran / KPNB1)" result="> 50 µM (inactive)"
compound="COCCNC(=O)C(C)OC(=O)c1cc2occc2n1C (configuration not stated)" test_target="RanGTP-importin-beta complex (human Ran / KPNB1)" result="> 50 µM (inactive)"
compound=CN(C)c1ccc(/C=C(\NC(=O)c2ccccc2)C(=O)NCc2ccncc2)cc1 test_target="RanGTP-importin-beta complex (human Ran / KPNB1)" result="> 50 µM (inactive)"
compound=COc1cc2c(cc1OC)CN(Cc1ccccc1)CC2 test_target="RanGTP-importin-beta complex (human Ran / KPNB1)" result="> 50 µM (inactive)"
compound="COc1ccc(CCNC(=O)c2cc3c(=O)n4ccccc4nc3n(CC3CCCO3)c2=N)cc1OC (configuration not stated)" test_target="RanGTP-importin-beta complex (human Ran / KPNB1)" result="21.3 µM"
compound=COc1ccc(-c2c(N)nnc3c2[nH]c2ccccc23)cc1OC test_target="RanGTP-importin-beta complex (human Ran / KPNB1)" result="> 50 µM (inactive)"
compound=Cc1ccc2nc(N3CCN(C(=O)c4cccs4)CC3)c(C#N)cc2c1 test_target="RanGTP-importin-beta complex (human Ran / KPNB1)" result="17.7 µM"
